# Tested on: Escherichia coli TOP10
# PROTOCOL_DETAILS: shrunken log2 fold change of peptide-encoding DNA abundance (4.5 h post-induction vs induction); higher = less antimicrobial activity (less host growth inhibition)
# CONDITION_SET: time post-induction: 4.5 h; library: site-saturation at positions 5, 18, 19, 20
Reported shrunken log2 fold change values for a set of sequences
Quick one: just the number, no unit, thanks!

Before answering, review these 6 worked examples.
RRIRYRPPRLPRPRPRPNHHPRP : -1.19
RRIRGRPPRLPRPRPRPHACPRP : -0.0193
RRIRFRPPRLPRPRPRPLIKPRP : -0.31
RRIRKRPPRLPRPRPRPYHTPRP : -0.673
RRIRDRPPRLPRPRPRPPDIPRP : -0.0754
RRIRARPPRLPRPRPRPRFLPRP : 0.371

Name the reported shrunken log2 fold change value associated with the sequence `RRIRKRPPRLPRPRPRPDKAPRP`
0.0987

Name the reported shrunken log2 fold change value associated with the sequence `RRIRKRPPRLPRPRPRPDYLPRP`
0.111

Name the reported shrunken log2 fold change value associated with the sequence `RRIRARPPRLPRPRPRPFAWPRP`
0.122

Name the reported shrunken log2 fold change value associated with the sequence `RRIRMRPPRLPRPRPRPYGIPRP`
-0.0497

* * *

Reported shrunken log2 fold change values for a set of sequences
# Test system: Escherichia coli TOP10
# PROTOCOL_DETAILS: shrunken log2 fold change of peptide-encoding DNA abundance (4.5 h post-induction vs induction); higher = less antimicrobial activity (less host growth inhibition)
# CONDITION_SET: time post-induction: 4.5 h; library: site-saturation at positions 5, 18, 19, 20
Quick one: just the number, no unit, thanks!

Name the reported shrunken log2 fold change value associated with the sequence `RRIRARPPRLPRPRPRPPAVPRP`
0.927

Name the reported shrunken log2 fold change value associated with the sequence `RRIRHRPPRLPRPRPRPDSVPRP`
-0.117

Name the reported shrunken log2 fold change value associated with the sequence `RRIRMRPPRLPRPRPRPTKDPRP`
0.277

Name the reported shrunken log2 fold change value associated with the sequence `RRIRERPPRLPRPRPRPANHPRP`
-0.00846

Name the reported shrunken log2 fold change value associated with the sequence `RRIRYRPPRLPRPRPRPDDFPRP`
-0.0153

Name the reported shrunken log2 fold change value associated with the sequence `RRIRGRPPRLPRPRPRPTSAPRP`
0.855

Name the reported shrunken log2 fold change value associated with the sequence `RRIRERPPRLPRPRPRPYGWPRP`
-0.135

* * *

Reported shrunken log2 fold change values for a set of sequences
# Tested on: Escherichia coli TOP10
# PROTOCOL_DETAILS: shrunken log2 fold change of peptide-encoding DNA abundance (4.5 h post-induction vs induction); higher = less antimicrobial activity (less host growth inhibition)
# CONDITION_SET: time post-induction: 4.5 h; library: site-saturation at positions 5, 18, 19, 20
Quick one: just the number, no unit, thanks!

RRIRQRPPRLPRPRPRPTDIPRP : -0.0659

Now, please, on to the next sequence.
// map `RRIRNRPPRLPRPRPRPICEPRP` to recorded shrunken log2 fold change (system: Escherichia coli TOP10)
0.0602

* * *

# Test system: Escherichia coli TOP10
# PROTOCOL_DETAILS: shrunken log2 fold change of peptide-encoding DNA abundance (4.5 h post-induction vs induction); higher = less antimicrobial activity (less host growth inhibition)
# CONDITION_SET: time post-induction: 4.5 h; library: site-saturation at positions 5, 18, 19, 20
Category scheme (shrunken log2 fold change): band 1 = under -0.01, band 2 = from -0.01 up to 0.2, band 3 = 0.2 and over

Would you please look over these solved cases?
RRIRDRPPRLPRPRPRPGTDPRP : band 3
RRIRFRPPRLPRPRPRPLRMPRP : band 2

Band for the recorded shrunken log2 fold change of `RRIRDRPPRLPRPRPRPIQNPRP` ?
band 2

Band for the recorded shrunken log2 fold change of `RRIRCRPPRLPRPRPRPTFTPRP` ?
band 1

Band for the recorded shrunken log2 fold change of `RRIRRRPPRLPRPRPRPVRNPRP` ?
band 2

* * *

# System: Escherichia coli TOP10
# PROTOCOL_DETAILS: shrunken log2 fold change of peptide-encoding DNA abundance (4.5 h post-induction vs induction); higher = less antimicrobial activity (less host growth inhibition)
# CONDITION_SET: time post-induction: 4.5 h; library: site-saturation at positions 5, 18, 19, 20
TEST_READOUT: shrunken log2 fold change

Before answering, review these 8 worked examples.
RRIRIRPPRLPRPRPRPMASPRP : -0.00783
RRIRPRPPRLPRPRPRPMKVPRP : -0.0686
RRIRNRPPRLPRPRPRPHNPPRP : -0.143
RRIRARPPRLPRPRPRPHAEPRP : 0.955
RRIRWRPPRLPRPRPRPIPMPRP : 0.112
RRIRVRPPRLPRPRPRPTPWPRP : 0.294
RRIRHRPPRLPRPRPRPWEAPRP : -0.0553
RRIRFRPPRLPRPRPRPALHPRP : -0.0349

Name the reported shrunken log2 fold change value associated with the sequence `RRIRLRPPRLPRPRPRPLDCPRP`
0.0132

Name the reported shrunken log2 fold change value associated with the sequence `RRIRFRPPRLPRPRPRPAHLPRP`
-0.0824

Name the reported shrunken log2 fold change value associated with the sequence `RRIRSRPPRLPRPRPRPNADPRP`
0.113

* * *

# System: Escherichia coli TOP10
# PROTOCOL_DETAILS: shrunken log2 fold change of peptide-encoding DNA abundance (4.5 h post-induction vs induction); higher = less antimicrobial activity (less host growth inhibition)
# CONDITION_SET: time post-induction: 4.5 h; library: site-saturation at positions 5, 18, 19, 20
Label Met when shrunken log2 fold change is at or above 0.2; otherwise label Not met.

Would you please look over these solved cases?
RRIRKRPPRLPRPRPRPDRTPRP : Not met
RRIRCRPPRLPRPRPRPPYFPRP : Not met
RRIRRRPPRLPRPRPRPEDEPRP : Not met
RRIRARPPRLPRPRPRPSIFPRP : Not met
RRIRRRPPRLPRPRPRPNDQPRP : Met
RRIRLRPPRLPRPRPRPTEYPRP : Not met

// inclusive: shrunken log2 fold change at least 0.2? input: `RRIRKRPPRLPRPRPRPECCPRP`
Met

// inclusive: shrunken log2 fold change at least 0.2? input: `RRIRRRPPRLPRPRPRPRQVPRP`
Met

// inclusive: shrunken log2 fold change at least 0.2? input: `RRIRCRPPRLPRPRPRPDWVPRP`
Not met

// inclusive: shrunken log2 fold change at least 0.2? input: `RRIRFRPPRLPRPRPRPPAEPRP`
Met

// inclusive: shrunken log2 fold change at least 0.2? input: `RRIRCRPPRLPRPRPRPWFAPRP`
Not met

// inclusive: shrunken log2 fold change at least 0.2? input: `RRIRPRPPRLPRPRPRPAFIPRP`
Not met

// inclusive: shrunken log2 fold change at least 0.2? input: `RRIRHRPPRLPRPRPRPYINPRP`
Not met

// inclusive: shrunken log2 fold change at least 0.2? input: `RRIRFRPPRLPRPRPRPEQQPRP`
Not met

* * *

# System: Escherichia coli TOP10
# PROTOCOL_DETAILS: shrunken log2 fold change of peptide-encoding DNA abundance (4.5 h post-induction vs induction); higher = less antimicrobial activity (less host growth inhibition)
# CONDITION_SET: time post-induction: 4.5 h; library: site-saturation at positions 5, 18, 19, 20
TEST_READOUT: shrunken log2 fold change
Quick one: just the number, no unit, thanks!

RRIRSRPPRLPRPRPRPEDNPRP : 0.24

Name the reported shrunken log2 fold change value associated with the sequence `RRIRSRPPRLPRPRPRPRCMPRP`
-0.0959

Name the reported shrunken log2 fold change value associated with the sequence `RRIRVRPPRLPRPRPRPECKPRP`
0.0339

Name the reported shrunken log2 fold change value associated with the sequence `RRIRKRPPRLPRPRPRPAVGPRP`
0.472

Name the reported shrunken log2 fold change value associated with the sequence `RRIRPRPPRLPRPRPRPGSPPRP`
0.0761

Name the reported shrunken log2 fold change value associated with the sequence `RRIRDRPPRLPRPRPRPTRGPRP`
0.67

Name the reported shrunken log2 fold change value associated with the sequence `RRIRWRPPRLPRPRPRPVYKPRP`
-0.516

* * *

Reported shrunken log2 fold change values for a set of sequences
# Test system: Escherichia coli TOP10
# PROTOCOL_DETAILS: shrunken log2 fold change of peptide-encoding DNA abundance (4.5 h post-induction vs induction); higher = less antimicrobial activity (less host growth inhibition)
# CONDITION_SET: time post-induction: 4.5 h; library: site-saturation at positions 5, 18, 19, 20
Quick one: just the number, no unit, thanks!

Before answering, review these 5 worked examples.
RRIRPRPPRLPRPRPRPGTPPRP : 0.0946
RRIRTRPPRLPRPRPRPWSHPRP : -0.113
RRIRYRPPRLPRPRPRPADSPRP : -0.212
RRIRPRPPRLPRPRPRPITIPRP : -0.197
RRIRPRPPRLPRPRPRPASNPRP : -0.231

// map `RRIRIRPPRLPRPRPRPLVQPRP` to recorded shrunken log2 fold change (system: Escherichia coli TOP10)
-0.884

// map `RRIRWRPPRLPRPRPRPGWCPRP` to recorded shrunken log2 fold change (system: Escherichia coli TOP10);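 further: peptides expressed intracellularly from a pBAD plasmid library in pooled LB shake-flask culture, induced with 0.3% L-arabinose, DNA abundance read by NGS, three biological replicates, DESeq2 with apeglm shrinkage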
0.362
